assay: binders from COS7 lysate, DM2A8 probe, primary screen, torsin A project, cell lysate, small-molecule microarray, fluorescence 635/667 (AID 1065); conditions: higher = more signal, COS7 lysate expressing mutant human TOR1A
Measured composite z-score, listed per entry.
// response body must contain only the number

{"compound": "CC(=O)NCCCC[C@@H]1NC(=O)[C@@H]2C[C@H](C(=O)NCCCCCCNC(=O)CS)[C@H](c3cccc(OCCO)c3)N2C1=O", "composite z-score": 0.311}
{"compound": "COC(=O)[C@@]1(Cc2ccccc2)[C@H]2c3cc(C(=O)N4CCCC4)n(CC4CC4)c3C[C@H]2CN1C(=O)c1ccccc1", "composite z-score": 0.365}
{"compound": "COCCOC(=O)N1C(=O)[C@@]2(c3ccccc31)[C@H](c1ccc(O)cc1)N1[C@H](c3ccccc3)[C@H](c3ccccc3)OC(=O)[C@H]1[C@@H]2C(=O)NC[C@H](O)c1ccccc1", "composite z-score": 0.702}

Task: Return composite z-score (reported value) for this compound: `COC(=O)c1c(CC[C@@H](CO)NC(=O)N2CCC[C@H]2Cn2cc(-c3ccccn3)nn2)oc(C(C)=O)c1C(=O)OC`
Result: -0.0298

Task: Provide one value: measured composite z-score of `O=C(O)[C@@]1(CCS(=O)(=O)c2ccccc2)COC(c2ccc(OCCCO)cc2)=N1`
Result: -0.715

Task: Output composite z-score of CCCCCN1CC=CC23O[C@@H]4/C=C\CCCOC(=O)C4[C@H]2C(=O)N(CCCO)[C@@H]3C1=O (some centres undefined)
Result: 1.14

Task: Determine from records and report composite z-score for `CC(C)C[C@@H]1NC(=O)[C@H]2C[C@@H](C(=O)NCCCCCCN)[C@@H](c3ccc(O)cc3)N2C1=O`
Result: 0.252

Task: Provide measured composite z-score value, entry: `CC(C)OC(=O)C=C1C[C@@H](c2ccccc2C(F)(F)F)O[C@@H](c2ccccc2C(F)(F)F)O1`
Result: -0.11

Task: Write down composite z-score measured for item `C=CCNC(=O)[C@@H]1[C@H]2C(=O)O[C@H](c3ccccc3)[C@H](c3ccccc3)N2[C@H](c2ccc(OCCO)cc2)[C@@]12C(=O)Nc1ccc(C#CCCO)cc12`
Result: 0.727

----------
system: XIP peptide (Xip251-270); experiment: small-molecule binders of XIP peptide, primary screen, biochemical, small-molecule microarray, fluorescence 635/667 nm, 0.5 µg/mL protein (AID 1183); details: small-molecule microarray binding, fluorescence 635 nm; higher = more signal
Recorded composite z-score by entry
Give the figure only, with no unit attached.

Look over these answered cases.
{"molecule": "CCOC(=O)C[C@H]1[C@H](OC(=O)Cc2ccc3c(c2)OCO3)[C@@H](NC(=O)c2ccc(-c3ccccc3)cc2)c2cc(OCCCO)ccc2N1C(=O)Cc1ccc(OC)cc1", "reportedEndpoint": "composite z-score", "measuredValue": 0.0066}
{"molecule": "COc1ccc(CCNC(=O)[C@@H]2c3ccccc3C(=O)N(C3Cc4ccccc4C3)[C@H]2c2ccc(CO)cc2)cc1", "reportedEndpoint": "composite z-score", "measuredValue": 0.219}
{"molecule": "COc1ccc(NN2C(C(O)c3ccc([N+](=O)[O-])cc3)C=CC3C(=O)N(C4CCCCC4)C(=O)C32)cc1 (configuration not stated)", "reportedEndpoint": "composite z-score", "measuredValue": -0.0788}

Task: Specify composite z-score for `CC(C)N1C(=O)c2ccccc2[C@](C)(C(=O)NCc2ccccc2)[C@@H]1c1ccc(CO)cc1` and stop.
Result: 0.48

Task: Find the measured composite z-score of `CC(C)(C)OC(=O)CC[C@]12N=C(c3ccc(OCCCO)cc3)O[C@H]1c1ccccc1N(CCS(=O)(=O)c1ccccc1)C2=O` and report it.
Result: 0.781

Task: Tell me its composite z-score given `CCCC[C@@H]1C[C@H]1[C@@H](NC(=O)c1ccco1)c1ccc(Cl)cc1` as the entry.
Result: -0.111

Task: Give composite z-score for the following molecule: `CCOC(=O)[C@H]1C/C=C/C[C@H](C(=O)OCC)C(=O)O[C@H]2[C@@H](OC)O[C@H](CO)[C@@H](OC(=O)Nc3ccc(C#N)cc3)[C@@H]2OC1=O`
Result: 0.84

----------
This section presents compounds with their documented composite z-score values.
test system: Neuregulin-1 EGF-like domain; test: binders of neuregulin-1 EGF-like domain, primary screen, biochemical, small-molecule microarray, 635 nm fluorescence (AID 1081); conditions: small-molecule microarray binding, higher = more signal;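 also: binding of the protein to compounds printed on small-molecule microarray slides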
Form field (numeric): enter value without unit.

{"compound": "C=CCN1C(=O)[C@@]2(O[C@@H](CCO)[C@H]([Si](C)(C)c3ccc(OC)cc3)[C@H]2C)c2cc(NC(=O)c3ccc(OC)cc3)ccc21", "targetSystem": "Neuregulin-1 EGF-like domain", "reportedEndpoint": "composite z-score", "measuredValue": 0.949}
{"compound": "CCOC(=O)C1=CCC(c2ccc(C)cc2)N(S(=O)(=O)c2ccc(C)cc2)C1 (configuration not stated)", "targetSystem": "Neuregulin-1 EGF-like domain", "reportedEndpoint": "composite z-score", "measuredValue": 0.923}
{"compound": "CCCCCC1=C2CNC(CCC)(C(=O)OC)C=C2C(C)C1=O (configuration not stated)", "targetSystem": "Neuregulin-1 EGF-like domain", "reportedEndpoint": "composite z-score", "measuredValue": 0.993}
{"compound": "Cc1ccc(S[C@]2(C(=O)NCCN3CCOCC3)CC(=O)N(Cc3ccccc3)[C@@H]2c2ccc(CO)cc2I)cc1", "targetSystem": "Neuregulin-1 EGF-like domain", "reportedEndpoint": "composite z-score", "measuredValue": 1.49}
{"compound": "C#CCN(Cc1ccccc1Br)C(/C=C/c1ccccc1)CO (configuration not stated)", "targetSystem": "Neuregulin-1 EGF-like domain", "reportedEndpoint": "composite z-score", "measuredValue": -0.131}

Task: Send back Neuregulin-1 EGF-like domain composite z-score of `O=C(NCc1ccccc1)[C@@]1(Cc2ccccc2)N=C(c2ccc(OCCCO)cc2)O[C@H]1c1ccccc1` only.
Result: 1.05

Task: Report the value of composite z-score obtained on Neuregulin-1 EGF-like domain for `COC(=O)c1c(CC[C@@H](CO)NC(=O)N[C@H](Cn2cc(Cc3ccccc3)nn2)C(C)C)oc(C(C)=O)c1C(=O)OC` .
Result: 1.06

----------
Listed next: entries and their corresponding composite z-score.
biological target: Fibroblast growth factor 2 (Homo sapiens); experiment: FGF2 binders on small-molecule microarrays, primary screen, biochemical, small-molecule microarray, 635/667 nm fluorescence (AID 1133); conditions: small-molecule microarray binding, FGF2, fluorescence 635/667; higher = more signal
I only need the number, thanks.

Here is how some molecules turned out for composite z-score.
{"molecule": "CCOC(=O)[C@H]1C/C=C/C[C@H](C(=O)OCC)C(=O)O[C@H]2[C@@H](OC)O[C@H](CO)[C@@H](OC(=O)Nc3cccc(F)c3)[C@@H]2OC1=O", "composite z-score": 0.0815}
{"molecule": "COc1ccc(C(=O)Nc2cccc(CN3C(=O)[C@]4(O[C@H](CCO)[C@@H]([Si](C)(C)c5ccc(OC)cc5)[C@@H]4C)c4ccccc43)c2)cc1", "composite z-score": 0.699}
{"molecule": "COCCOC(=O)N1C(=O)[C@@]2(c3cc(C#CCCO)ccc31)[C@H](C(=O)N1CCN(c3ncccn3)CC1)[C@H]1C(=O)O[C@H](c3ccccc3)[C@H](c3ccccc3)N1[C@@H]2c1ccccc1OCCO", "composite z-score": 0.821}
{"molecule": "COc1cc(OC)c(C(O)C2C=CC3C(=O)NC(=O)C3N2Nc2ccc(Cl)cc2Cl)cc1Br (configuration not stated)", "composite z-score": 0.518}
{"molecule": "C=C(CCCC)/C(=C/C[C@@H](OC(C)=O)c1ccccc1OCCO)c1cnc2ccccc2c1", "composite z-score": 0.908}
{"molecule": "O=C1NC(=O)C2C1C=CC(C(O)Cc1ccccc1)N2Nc1ccc(Cl)cc1Cl (configuration not stated)", "composite z-score": -0.644}

Task: Determine reported composite z-score for `C[C@@]1([C@@H](NC(=O)c2ccccc2)c2ccc(-c3ccccc3)cc2)C[C@H]1C1CCCCC1` ; test system: Fibroblast growth factor 2 (Homo sapiens).
Result: -1

----------
assay: modulators of HCV replicon luciferase signal, primary screen, HCV replication inhibitor project, Huh7 cells, luciferase reporter (AID 1109); conditions: 48 h, higher = more signal;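 also: huh7 hepatoma cells harbouring a luciferase neomycin HCV replicon reporter; luciferase luminescence as measure of HCV replicon replication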
reportedEndpoint: z-score
Enter a number only.

Record excerpt, results attached:
{"compound": "O=C1c2ccccc2[C@](Cc2ccccc2I)(C(=O)NC2CC2)[C@H](c2ccc(CO)cc2)N1C1CCCCC1", "z-score": -1.62}
{"compound": "C=C(CCCC)C(=O)CC[C@H](OC(=O)c1cccnc1)c1ccccc1OCCO", "z-score": -2.46}
{"compound": "CC1CC/C=C\\[C@H]2OC34C=CCN(c5ccc(Cl)cc5)C(=O)[C@H]3N(CCO)C(=O)[C@]4(C)C2C(=O)O1 (some centres not stated)", "z-score": -1.35}
{"compound": "O=C(NCc1ccccc1)[C@@H]1c2ccccc2C(=O)N(CC23CC4CC(CC(C4)C2)C3)[C@H]1c1ccc(CO)cc1", "z-score": -1.96}

Task: Check the records and state z-score for `CC(C)(C)OC(=O)CC[C@@]1(C(N)=O)N=C(c2ccc(OCCCO)cc2)O[C@@H]1c1ccccc1`
Result: 0.14

Task: Please indicate z-score recorded for CCOC1=C2C(CN(S(=O)(=O)c3ccc(C)cc3)C2c2ccc(C)cc2)C2C(=O)N(c3ccccc3)C(=O)C2C1 (configuration not stated)
Result: -0.348

Task: Give the reported value of z-score for this record: `CCOC(=O)C[C@H]1[C@H](OC(=O)c2ccc(C(=O)c3ccccc3)cc2)[C@@H](NC(=O)c2ccc(-c3ccccc3)cc2)c2cc(OCCCO)ccc2N1C(=O)c1ccccc1`
Result: -1.1
